- TESTED ON: T1, mouse GPRC5D (mouse, UniProt Q9JIL6 1-344)
- T1 construct: Full length, on stably transfected CHO-K1 cells; also called murineGPRC5D; CHO-K1-murineGPRC5D
- T1 sequence: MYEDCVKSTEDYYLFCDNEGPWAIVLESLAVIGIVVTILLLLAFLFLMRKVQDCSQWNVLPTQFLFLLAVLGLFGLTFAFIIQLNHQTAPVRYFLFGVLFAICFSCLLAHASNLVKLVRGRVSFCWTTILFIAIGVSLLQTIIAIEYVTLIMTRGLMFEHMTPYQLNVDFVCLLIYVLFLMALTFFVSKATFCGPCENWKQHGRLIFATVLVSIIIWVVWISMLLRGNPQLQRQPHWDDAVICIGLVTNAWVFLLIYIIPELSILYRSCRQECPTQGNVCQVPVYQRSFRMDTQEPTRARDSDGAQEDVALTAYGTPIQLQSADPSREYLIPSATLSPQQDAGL
- TEST DESCRIPTION: FACS on CHO-K1-murineGPRC5D cells
REPORTED ENDPOINT: binding result

Requested field: binding result. Item: Chi-128 (antibody, human IgG1, kappa, V domains shown, Human-mouse chimeric antibody, human IgG1 heavy chain constant region and Kappa light chain constant region) VH: DVQLVESGGGLVQPGGSRKVSCAASGFTFSSFGMHWVRQAPEKGLEWVAYISRGSSTIYYADTVKGRFTISRDNPKNTLFLQMTSLRSEDTAMYYCARSGYGSSSYYFDYWGQGTTLTVSS VL: ENVLTQSPAIMSASPREKVTMTCRASSSIRSSYLHWYQQKSGASPKLWIYSTSNLASGVPARFSGSGSGTSYSLTISSVEAEDAATYYCQQFSGYPLTFGGGTKLEIKR
binds

Suppose we examine the binder Chi-89 (antibody, human IgG1, kappa, V domains shown, Human-mouse chimeric antibody, human IgG1 heavy chain constant region and Kappa light chain constant region; also called chimeric antibody Chi-89) VH: EVQLVESGGDLVKPGGSLKLSCAASGFTFSSYGMSWVRQTPDKRLEWVATISSGGSYTYYPDSVKGRFTFSRDNAKNTLYLQMSSLKSEDTAMYYCVRQALRYHMDSWGQGTSVTVSS VL: DIVMTQSQKFMSTSVGDRVSVTCKASQNVGTNVAWYQQKPGQSPKALIYSASYRYSGVPDRFTGSGSGTDFTLTISNVQSEDLADFFCQQYYSYPWTFGGGTKLEIKR ; what binding result value has been reported?
binds

Look at this binder and give its reported binding result. Chi-169 (antibody, human IgG1, kappa, V domains shown, Human-mouse chimeric antibody, human IgG1 heavy chain constant region and Kappa light chain constant region; also called chimeric antibody Chi-169) VH: EVKLVESGGGLVKPGASLKLSCAASGFTFSNYGMSWVRQTSDKRLEWVASISSGGGRIYYPDNVKGRFTISRENAKNTLYLQMSSLKSEDTALYYCTRHAMDNWGQGTSVIVSS VL: QIVLTQSPAIMSASPGEKVTMTCSASSSVSNMYWYQQKSGTSPKRWIYDTSKLASGVPARFSGSGSGTSYSLTISSMEAEDASTYYCQQWSSNPLTFGAGTTLELKR
binds

Fill in: binding result of Chi-131 (antibody, human IgG1, kappa, V domains shown, Human-mouse chimeric antibody, human IgG1 heavy chain constant region and Kappa light chain constant region; also called chimeric antibody Chi-131) VH: EVQLQQSGPELVKPGASVKMSCKASGYTFTNYVMHWVKQKPGQGLEWIGYFNPYNDGTNYNEKFKGKATLTSDKSSNTAYMELSSLTSEDSAVYYCARGGVRRYFDVWGAGTTVTVSS VL: DIQMTQSPSSLSASLGERVSLTCRASQDIGSNLNWLQLGPDGTIKRLIYATFSLDSGVPKRFSGSRSGSDYSLTISSLESEDFVDYYCQQYANFPPTFGGGTKLEIKR is ___
binds
